List of CC50 tested on Huh7 parental cells.
property_measured: CC50 (µM)

compound	unit_of_measurement	measurement_qualifier	assay_value
CNC1CCC(c2cccs2)c2ccccc21 (stereo not shown) [Sertraline B-ring 2-Thiophene]	µM	=	88.5
CN[C@H]1CC[C@@H](c2ccc(Cl)c(Cl)c2)c2ccc(C(N)=O)cc21 [Sertraline A-ring carboxamide]	µM	=	16.2
CNC1CCC(c2ccccc2OC)c2ccccc21 (stereo not shown) [Sertraline B-Ring Ortho-Methoxy]	µM	>	22.3
CNC1CCC(c2cccc(OC)c2)c2ccccc21 (stereo not shown) [Sertraline B-ring m-Methoxy]	µM	>	50
CN[C@H]1CC[C@H](c2ccc(Cl)c(Cl)c2)c2ccccc21.Cl [(1S,4R) Sertraline Hydrochloride]	µM	=	7.51
CN[C@H]1CC[C@@H](c2ccc(Cl)c(Cl)c2)c2ccccc21.Cl [(1R,4S) Sertraline Hydrochloride]	µM	=	14.2
Cl.N[C@H]1CC[C@@H](c2ccc(Cl)c(Cl)c2)c2ccccc21 [(1S,4S)-Desmethyl Sertraline, Hydrochloride]	µM	=	6.68
